# Tested on: Curvularia lunata
# method.description: Antifungal activity against Curvularia lunata MTCC 581 at 80 uM/ml after 48 hrs by paper disc diffusion method
# Format: functional
# cond: MTCC 581, 48 h, read-out: IZ
Entries annotated with measured zone of inhibition at 80 µM

Example cases with answers are listed next.
INSERT INTO results (compound, experimental_target, endpoint_value) VALUES
  ('COc1cc(/C=C/C(=O)C2=C(/C=C/c3ccc(O)c(OC)c3)NC(=S)NC2c2ccc(O)cc2)ccc1O (stereo not drawn)', 'Curvularia lunata', '22 mm'),
  ('COc1cc(/C=C/C(=O)C2=C(/C=C/c3ccc(O)c(OC)c3)NC(=S)NC2c2ccc(O)c(OC)c2)ccc1O (stereo not drawn)', 'Curvularia lunata', '22 mm'),
  ('COc1cc(/C=C/C(=O)C2=C(/C=C/c3ccc(O)c(OC)c3)NC(=O)NC2c2ccc(Cl)cc2)ccc1O (stereo not drawn)', 'Curvularia lunata', '18 mm'),
  ('COc1cc(/C=C/C(=O)C2=C(/C=C/c3ccc(O)c(OC)c3)NC(=S)NC2c2ccc(Cl)cc2)ccc1O (stereo not drawn)', 'Curvularia lunata', '13 mm'),
  ('OC(Cn1cncn1)(Cn1cncn1)c1ccc(F)cc1F', 'Curvularia lunata', '28 mm'),
  ('COc1cc(/C=C/C(=O)C2=C(/C=C/c3ccc(O)c(OC)c3)NC(=O)NC2c2ccc(O)cc2)ccc1O (stereo not drawn)', 'Curvularia lunata', '20 mm'),
  ('COc1cc(/C=C/C(=O)C2=C(/C=C/c3ccc(O)c(OC)c3)NC(=S)NC2c2ccc([N+](=O)[O-])cc2)ccc1O (stereo not drawn)', 'Curvularia lunata', '19 mm');

# next compound below
Problem: Field request: zone of inhibition at 80 µM | item: COc1cc(/C=C/C(=O)CC(=O)/C=C/c2ccc(O)c(OC)c2)ccc1O
Solution: 9 mm

* * *

# System: Escherichia coli
# method.description: Antibacterial activity against Escherichia coli ATCC 35218 at 20 uM/ml after 24 hrs by kirby-bauer method
# Assay type: functional
# cond: ATCC 35218, 24 h, read-out: IZ
Entries annotated with measured zone of inhibition at 20 µM
Give a bare numeral; the unit mm is implied.

INSERT INTO assay_data (compound, units_symbol, endpoint_value) VALUES
  ('COc1cc(/C=C/C(=O)C2=C(/C=C/c3ccc(O)c(OC)c3)NC(=O)NC2c2ccc([N+](=O)[O-])cc2)ccc1O (stereo not drawn)', 'mm', 12),
  ('COc1cc(/C=C/C(=O)C2=C(/C=C/c3ccc(O)c(OC)c3)NC(=O)NC2c2ccc(O)c(OC)c2)ccc1O (stereo not drawn)', 'mm', 11),
  ('COc1cc(/C=C/C(=O)C2=C(/C=C/c3ccc(O)c(OC)c3)NC(=O)NC2c2ccccc2O)ccc1O (stereo not drawn)', 'mm', 15),
  ('CC1(C)S[C@@H]2[C@H](NC(=O)[C@H](N)c3ccccc3)C(=O)N2[C@H]1C(=O)O', 'mm', 30),
  ('COc1cc(/C=C/C(=O)C2=C(/C=C/c3ccc(O)c(OC)c3)NC(=O)NC2c2ccc(O)cc2)ccc1O (stereo not drawn)', 'mm', 12),
  ('COc1cc(/C=C/C(=O)C2=C(/C=C/c3ccc(O)c(OC)c3)NC(=S)NC2c2ccccc2)ccc1O (stereo not drawn)', 'mm', 12),
  ('COc1cc(/C=C/C(=O)C2=C(/C=C/c3ccc(O)c(OC)c3)NC(=S)NC2c2ccc(O)cc2)ccc1O (stereo not drawn)', 'mm', 13);

# next compound below
Problem: Field request: zone of inhibition at 20 µM | item: COc1cc(/C=C/C(=O)C2=C(/C=C/c3ccc(O)c(OC)c3)NC(=O)NC2c2ccc(Cl)cc2)ccc1O (stereo not drawn)
Solution: 9
